tgt: PARP-1 enzyme (Homo sapiens)
Construct: made in house
experimentNotes: In vitro filtration assay for PARP-1 inhibitory activity
Type: biochemical
runParameters: nicked DNA activated PARP-1, [32P]-NAD, histones; read-out: In vitro filtration assay pIC50 (converted)
propertyName: IC50 (µM)

Cc1cc2cc(C(NCCC(=O)c3ccccc3)c3ccccc3)ccc2[nH]c1=O (stereo not drawn)	2.33
Cc1cc2cc(C(CCN3CCCCC3)c3ccccc3)ccc2[nH]c1=O (stereo not drawn)	2.68
Cc1cc2cc(/C(=C3\CCCN(C)C3)c3ccccc3)ccc2[nH]c1=O	1.56
CCc1nc2cc(CC(c3ccc(Cl)cc3)n3ccnc3)ccc2[nH]c1=O (stereo not drawn)	1.75
Cc1cc2cc(C(NCCCc3cccs3)c3ccccc3)ccc2[nH]c1=O (stereo not drawn)	3.27

P: COc1ccc(C(c2ccc3[nH]c(=O)c(C)nc3c2)n2ccnc2)cc1 (stereo not drawn)
Q: CCc1cc2cc(C(CCN(C)C)c3ccccc3)ccc2[nH]c1=O (stereo not drawn)
R: Cc1cc2cc(C(NCCO)c3ccccc3)ccc2[nH]c1=O (stereo not drawn)
Ask: Please order the records by their reported IC50, lowest number first. # format: label list in the order the request specifies
Reply: Q, P, R

1: Cc1cc2cc(C(C#N)c3ccccc3)ccc2[nH]c1=O (stereo not drawn)
2: Cc1cc2cc(C(NC=O)c3ccc(Cl)cc3)ccc2[nH]c1=O (stereo not drawn)
Ask: Please tell me which of the two, 1 or 2 , has the higher reported IC50 value. Mark your answer with the label of the selected entry.
Reply: 1

###

tgt: PARP-1 enzyme (Homo sapiens, UniProt P09874)
Construct: made in house
Sequence (P09874 whole entry): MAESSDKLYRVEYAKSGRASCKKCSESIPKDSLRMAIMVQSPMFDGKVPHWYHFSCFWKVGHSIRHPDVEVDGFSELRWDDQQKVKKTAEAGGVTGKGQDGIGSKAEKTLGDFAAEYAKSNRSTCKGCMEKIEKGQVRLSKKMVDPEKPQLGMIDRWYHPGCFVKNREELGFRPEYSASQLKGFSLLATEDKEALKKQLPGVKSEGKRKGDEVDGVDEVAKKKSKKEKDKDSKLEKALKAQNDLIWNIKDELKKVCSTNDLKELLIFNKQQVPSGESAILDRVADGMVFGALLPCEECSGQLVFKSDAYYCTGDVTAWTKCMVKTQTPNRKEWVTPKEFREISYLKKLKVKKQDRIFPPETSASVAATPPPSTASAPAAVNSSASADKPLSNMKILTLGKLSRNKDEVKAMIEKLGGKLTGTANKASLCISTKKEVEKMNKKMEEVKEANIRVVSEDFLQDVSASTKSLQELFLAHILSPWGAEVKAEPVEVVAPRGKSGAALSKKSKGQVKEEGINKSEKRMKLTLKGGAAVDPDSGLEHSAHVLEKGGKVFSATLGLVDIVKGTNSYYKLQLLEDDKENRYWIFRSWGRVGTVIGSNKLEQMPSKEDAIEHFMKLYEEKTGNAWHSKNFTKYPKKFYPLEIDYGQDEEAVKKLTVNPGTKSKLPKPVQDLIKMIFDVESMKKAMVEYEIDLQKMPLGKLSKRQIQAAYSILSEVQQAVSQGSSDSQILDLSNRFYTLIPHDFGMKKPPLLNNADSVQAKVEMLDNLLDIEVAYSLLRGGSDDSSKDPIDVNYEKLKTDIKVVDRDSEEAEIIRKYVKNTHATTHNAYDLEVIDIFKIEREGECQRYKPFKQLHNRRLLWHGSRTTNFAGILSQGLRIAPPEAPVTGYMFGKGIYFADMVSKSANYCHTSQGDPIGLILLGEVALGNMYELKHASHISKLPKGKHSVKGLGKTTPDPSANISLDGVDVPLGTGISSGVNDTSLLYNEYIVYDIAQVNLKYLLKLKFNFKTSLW
experimentNotes: In vitro Scintillation Proximity Assay (SPA) for PARP-1 inhibitory activity
Format: biochemical
runParameters: nicked DNA activated PARP-1, [3H]-NAD+, biotinylated histones; read-out: In vitro SPA pIC50 (converted)
propertyName: IC50 (nM)

CCc1cc2cc(C(c3ccccc3F)N3CCC(NCCOC)CC3)ccc2[nH]c1=O (stereo not drawn)	312
CCOC(=O)c1ccc(C(NC=O)c2ccc3[nH]c(=O)c(C)cc3c2)cc1 (stereo not drawn)	502
Cc1cc2cc(/C(=C/CN(C)C)c3cccc4[nH]c(=O)c(C)cc34)ccc2[nH]c1=O	794
CCc1cc2cc(C(c3ccccc3)n3ccnc3)ccc2[nH]c1=O (stereo not drawn)	152
CCc1nc2cc(CC(c3ccc(Cl)cc3)N3CCC(O)(c4ccccc4)CC3)ccc2[nH]c1=O (stereo not drawn)	830

A: CCc1cc2cc(C(NC3CCCN(Cc4ccccc4)C3)c3ccc4c(c3)OCCO4)ccc2[nH]c1=O (stereo not drawn)
B: CCc1nc2cc(C(c3cccc(Cl)c3)n3ccnc3)ccc2[nH]c1=O (stereo not drawn)
C: CCc1nc2cc(CC(O)c3ccc(Cl)cc3)ccc2[nH]c1=O (stereo not drawn)
D: CCc1cc2cc(C(c3ccc4c(c3)OCCO4)N3CCN(CCN4CCCCC4)CC3)ccc2[nH]c1=O (stereo not drawn)
Ask: Place the items in sequence of falling IC50. # format: label list in the order the request specifies
Reply: B, C, A, D
(B: 612 nM, C: 256 nM, A: 152 nM, D: 23.7 nM)

###

tgt: PARP-1 enzyme (Homo sapiens)
Construct: made in house
experimentNotes: In vitro Scintillation Proximity Assay (SPA) for PARP-1 inhibitory activity
Assay type: biochemical
runParameters: nicked DNA activated PARP-1, [3H]-NAD+, biotinylated histones; read-out: In vitro SPA pIC50 (converted)
propertyName: IC50 (nM)

Some molecules with known IC50 results, for comparison:
CCc1cc2cc(C(OC(C)=O)c3ccccc3)ccc2[nH]c1=O (centres unmarked) [Compound 3]	407
CCc1cc2cc(C(c3ccc4c(c3)OCCO4)N3CCC(c4n[nH]c5cc(F)ccc45)CC3)ccc2[nH]c1=O (centres unmarked) [Compound 46]	405
CCc1cc2cc(C(=O)c3ccc4c(c3)OCCO4)ccc2[nH]c1=O [Compound 2]	735
Cc1cc2cc(C(c3ccccc3)N3CCCCC3)ccc2[nH]c1=O (centres unmarked) [Compound 93]	508

a: CCc1cc2cc(C(c3cccc(OC(F)(F)F)c3)N3CCC(NCCOC)CC3)ccc2[nH]c1=O (centres unmarked) [Compound 34]
b: CCc1nc2cc(C(c3ccc(Cl)cc3)n3cncn3)ccc2[nH]c1=O (centres unmarked) [Compound 22]
c: CCOC(=O)c1ccc(C(O)c2ccc3[nH]c(=O)c(C)cc3c2)cc1 (centres unmarked) [Compound 109]
d: CCc1cc2cc(C(c3cccc(C(F)(F)F)c3)n3cncn3)ccc2[nH]c1=O (centres unmarked) [Compound 78]
Ask: Place the items in sequence of falling IC50. # format: label list in the order the request specifies
Reply: c, a, b, d
(c: 755 nM, a: 525 nM, b: 366 nM, d: 197 nM)
